- target of assay: WT-MγS (Mus musculus)
- Construct: made in house; host or cells: E. coli BL21(DE3) pLysS, pET17b vector
- Sequence (O35486 whole entry): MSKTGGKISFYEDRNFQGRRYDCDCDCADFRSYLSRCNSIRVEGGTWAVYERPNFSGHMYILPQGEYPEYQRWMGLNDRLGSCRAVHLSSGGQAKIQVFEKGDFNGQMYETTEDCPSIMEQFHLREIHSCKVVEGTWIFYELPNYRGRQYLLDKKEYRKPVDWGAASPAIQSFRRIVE
- experimental details: Dynamic light scattering, WT-MγS
- Assay type: biochemical
- recorded conditions: WT-MγS, 30–90 °C, 400 μM drug
value type: Suppression of aggregate formation, DLS temperature scan

compound	result
Oc1c(Cl)cc(Cl)c(Cl)c1Cc1c(O)c(Cl)cc(Cl)c1Cl	mild suppressive effects
COC(=O)/C=C/C(C)=C\C=C\C(C)=C\C=C\C=C(C)\C=C\C=C(C)\C=C\C(=O)O	mild suppressive effects
CC(C)=CCCC1(C)C=Cc2c(O)c3c(c(CC=C(C)C)c2O1)OC12C(=CC4CC1C(C)(C)OC2(C/C=C(/C)C(=O)O)C4O)C3=O (stereo not drawn) [drug D, dihydrogambogic acid]	mild suppressive effects

---

- target of assay: HγS_N76D (Homo sapiens, UniProt P22914, N77D)
- Sequence (P22914 1-178 N77D): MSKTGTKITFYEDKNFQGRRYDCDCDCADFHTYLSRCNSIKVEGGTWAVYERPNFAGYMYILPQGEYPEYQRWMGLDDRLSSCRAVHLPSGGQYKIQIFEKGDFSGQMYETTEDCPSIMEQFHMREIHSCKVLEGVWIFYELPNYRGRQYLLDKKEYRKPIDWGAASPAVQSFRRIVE
- experimental details: Thermal aggregation (72 °C, 20 min) turbidity assay, HγS_N76D
- Assay type: biochemical
- recorded conditions: read-out: % Suppression
List of inhibition at 125 µM values.
Output spec: scalar in %, unitless text.

The following molecules have reported results that may help.
molecule	target of assay	recorded number
Cc1cc(C(C#N)c2ccc(Cl)cc2)c(Cl)cc1NC(=O)c1cc(I)cc(I)c1O (stereo not shown) [drug C, Closantel]	HγS_N76D (Homo sapiens, UniProt P22914, N77D)	70
CC(C)=CCCC1(C)C=Cc2c(O)c3c(c(CC=C(C)C)c2O1)OC12C(=CC4CC1C(C)(C)OC2(C/C=C(/C)C(=O)O)C4O)C3=O (stereo not shown) [drug D, dihydrogambogic acid]	HγS_N76D (Homo sapiens, UniProt P22914, N77D)	59
CC(C)=CCC[C@]1(C)C=Cc2c(O)c3c(c(CC=C(C)C)c2O1)O[C@]12C(=C[C@@H]4C[C@H]1C(C)(C)O[C@@]2(C/C=C(/C)C(=O)O)C4=O)C3=O [drug G, Gambogic acid]	HγS_N76D (Homo sapiens, UniProt P22914, N77D)	55

Lab book: inhibition at 125 µM of Oc1c(Cl)cc(Cl)c(Cl)c1Cc1c(O)c(Cl)cc(Cl)c1Cl [drug X, Hexachlorophene] noted as 60

---

- target of assay: HγS_N143D (Homo sapiens, UniProt P22914, N144D)
- Sequence (P22914 1-178 N144D): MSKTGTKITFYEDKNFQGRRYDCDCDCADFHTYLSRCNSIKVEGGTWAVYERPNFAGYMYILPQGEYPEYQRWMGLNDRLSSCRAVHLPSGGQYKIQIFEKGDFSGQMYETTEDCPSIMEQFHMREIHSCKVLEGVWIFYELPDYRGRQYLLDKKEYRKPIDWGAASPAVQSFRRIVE
- experimental details: Thermal aggregation (72 °C, 20 min) turbidity assay, HγS_N143D
- Type: biochemical
- recorded conditions: 20 min, read-out: % Suppression
List of inhibition at 125 µM values.
Output spec: scalar in %, unitless text.

molecule	inhibition at 125 µM / %
CC(C)=CCC[C@]1(C)C=Cc2c(O)c3c(c(CC=C(C)C)c2O1)O[C@]12C(=C[C@@H]4C[C@H]1C(C)(C)O[C@@]2(C/C=C(/C)C(=O)O)C4=O)C3=O [drug G, Gambogic acid]	48
Cc1cc(C(C#N)c2ccc(Cl)cc2)c(Cl)cc1NC(=O)c1cc(I)cc(I)c1O (stereo not shown) [drug C, Closantel]	52
Oc1c(Cl)cc(Cl)c(Cl)c1Cc1c(O)c(Cl)cc(Cl)c1Cl [drug X, Hexachlorophene]	50

Turning to the following molecule.
Lab book: inhibition at 125 µM of CC(C)=CCCC1(C)C=Cc2c(O)c3c(c(CC=C(C)C)c2O1)OC12C(=CC4CC1C(C)(C)OC2(C/C=C(/C)C(=O)O)C4O)C3=O (stereo not shown) [drug D, dihydrogambogic acid] noted as 30
